# target_under_test: Urotensin-2 receptor (Homo sapiens, UniProt Q9UKP6)
# Sequence (Q9UKP6 whole entry): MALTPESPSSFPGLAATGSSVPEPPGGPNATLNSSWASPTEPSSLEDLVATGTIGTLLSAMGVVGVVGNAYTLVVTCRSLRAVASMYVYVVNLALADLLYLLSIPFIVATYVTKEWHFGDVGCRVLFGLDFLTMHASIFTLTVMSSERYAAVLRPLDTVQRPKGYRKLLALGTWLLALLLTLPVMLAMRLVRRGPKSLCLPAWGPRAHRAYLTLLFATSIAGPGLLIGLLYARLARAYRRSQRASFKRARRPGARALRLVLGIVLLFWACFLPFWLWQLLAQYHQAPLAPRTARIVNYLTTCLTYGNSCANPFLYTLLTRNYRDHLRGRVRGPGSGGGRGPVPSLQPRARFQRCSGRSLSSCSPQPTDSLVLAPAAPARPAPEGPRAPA
Positions of bridges follow the written chain, without caps; N, C: chain ends. Non-standard residues stand in square brackets, D forms with d. Residues, ends and D or L forms follow the SMILES beside them. Phe(4-NO2) = N[C@@H](Cc1ccc([N+](=O)[O-])cc1)C(=O)O; 1Nal = N[C@@H](Cc1cccc2ccccc12)C(=O)O; Pen = CC(C)(S)[C@H](N)C(=O)O
attribute_measured: Ki (nM)
Quick note: give the figure in nM, leave out the unit.

Readout Ki for CC(C)[C@H](NC(=O)[C@@H]1CSSC(C)(C)[C@H](NC(=O)[C@@H](N)Cc2ccc([N+](=O)[O-])cc2)C(=O)N[C@@H](Cc2ccccc2)C(=O)N[C@@H](Cc2c[nH]c3ccccc23)C(=O)N[C@@H](CCCCN)C(=O)N[C@@H](Cc2ccc(O)cc2)C(=O)N1)C(=O)O (H-[Phe(4-NO2)][Pen]FWKYCV-OH; disulfide 2-7) , test system Urotensin-2 receptor (Homo sapiens, UniProt Q9UKP6), was 13.5

Readout Ki for CC(C)[C@H](NC(=O)[C@@H]1CSSC(C)(C)[C@H](NC(=O)[C@@H](N)Cc2cccc3ccccc23)C(=O)N[C@@H](Cc2ccccc2)C(=O)N[C@@H](Cc2c[nH]c3ccccc23)C(=O)N[C@@H](CCCCN)C(=O)N[C@@H](Cc2ccc(O)cc2)C(=O)N1)C(=O)O (H-[1Nal][Pen]FWKYCV-OH; disulfide 2-7) , test system Urotensin-2 receptor (Homo sapiens, UniProt Q9UKP6), was 26.3

Readout Ki for CC(C)[C@H](NC(=O)[C@@H]1CSSC(C)(C)[C@H](NC(=O)[C@@H](N)Cc2ccc([N+](=O)[O-])cc2)C(=O)N[C@@H](Cc2ccccc2)C(=O)N[C@H](Cc2c[nH]c3ccccc23)C(=O)N[C@@H](CCCN)C(=O)N[C@@H](Cc2ccc(O)cc2)C(=O)N1)C(=O)O , test system Urotensin-2 receptor (Homo sapiens, UniProt Q9UKP6), was 15.8

----------
Positions of bridges follow the written chain, without caps; N, C: chain ends. Non-standard residues stand in square brackets, D forms with d. Residues, ends and D or L forms follow the SMILES beside them. Phe(4-Cl) = N[C@@H](Cc1ccc(Cl)cc1)C(=O)O; 2Nal = N[C@@H](Cc1ccc2ccccc2c1)C(=O)O; Tic = O=C(O)[C@@H]1Cc2ccccc2CN1; Pen = CC(C)(S)[C@H](N)C(=O)O
attribute_measured: Ki (nM)
Quick note: give the figure in nM, leave out the unit.

Readout Ki for CC(C)[C@H](NC(=O)[C@@H]1CSSC(C)(C)[C@H](NC(=O)[C@@H](N)Cc2ccccc2)C(=O)N[C@@H](Cc2ccccc2)C(=O)N[C@H](Cc2c[nH]c3ccccc23)C(=O)N[C@@H](CCCN)C(=O)N[C@@H](Cc2ccc(O)cc2)C(=O)N1)C(=O)O , test system Urotensin-2 receptor (Homo sapiens, UniProt Q9UKP6), was 19.5

Readout Ki for CC(C)[C@H](NC(=O)[C@@H]1CSSC(C)(C)[C@H](NC(=O)[C@@H](N)Cc2ccc3ccccc3c2)C(=O)N[C@@H](Cc2ccccc2)C(=O)N[C@@H](Cc2c[nH]c3ccccc23)C(=O)N[C@@H](CCCCN)C(=O)N[C@@H](Cc2ccc(O)cc2)C(=O)N1)C(=O)O (H-[2Nal][Pen]FWKYCV-OH; disulfide 2-7) , test system Urotensin-2 receptor (Homo sapiens, UniProt Q9UKP6), was 6.46

Readout Ki for CC(C)[C@H](NC(=O)[C@@H]1CSSC(C)(C)[C@H](NC(=O)[C@@H](N)Cc2ccc(Cl)cc2)C(=O)N[C@@H](Cc2ccccc2)C(=O)N[C@@H](Cc2c[nH]c3ccccc23)C(=O)N[C@@H](CCCCN)C(=O)N[C@@H](Cc2ccc(O)cc2)C(=O)N1)C(=O)O (H-[Phe(4-Cl)][Pen]FWKYCV-OH; disulfide 2-7) , test system Urotensin-2 receptor (Homo sapiens, UniProt Q9UKP6), was 0.891

Readout Ki for CC(C)[C@H](NC(=O)[C@@H]1CSSC(C)(C)[C@H](NC(=O)[C@@H](N)Cc2ccccc2)C(=O)N[C@@H](Cc2ccccc2)C(=O)N[C@@H](Cc2c[nH]c3ccccc23)C(=O)N[C@@H](CCCCN)C(=O)N[C@@H](Cc2ccc(O)cc2)C(=O)N1)C(=O)O (H-F[Pen]FWKYCV-OH; disulfide 2-7) , test system Urotensin-2 receptor (Homo sapiens, UniProt Q9UKP6), was 0.282

Readout Ki for CC(C)[C@H](NC(=O)[C@@H]1CSSC(C)(C)[C@H](NC(=O)[C@@H](N)CCCCN)C(=O)N[C@@H](Cc2ccccc2)C(=O)N[C@@H](Cc2c[nH]c3ccccc23)C(=O)N[C@@H](CCCCN)C(=O)N[C@@H](Cc2ccc(O)cc2)C(=O)N1)C(=O)O (H-K[Pen]FWKYCV-OH; disulfide 2-7) , test system Urotensin-2 receptor (Homo sapiens, UniProt Q9UKP6), was 9.33

Readout Ki for CC(C)[C@H](NC(=O)[C@@H]1CSSC(C)(C)[C@H](NC(=O)[C@@H](N)Cc2ccc(Cl)cc2)C(=O)N[C@@H](Cc2ccccc2)C(=O)N[C@H](Cc2c[nH]c3ccccc23)C(=O)N[C@@H](CCCN)C(=O)N[C@@H](Cc2ccc(O)cc2)C(=O)N1)C(=O)O , test system Urotensin-2 receptor (Homo sapiens, UniProt Q9UKP6), was 9.55

Readout Ki for CC(C)[C@H](NC(=O)[C@@H]1CSSC(C)(C)[C@H](NC(=O)[C@@H]2Cc3ccccc3CN2)C(=O)N[C@@H](Cc2ccccc2)C(=O)N[C@@H](Cc2c[nH]c3ccccc23)C(=O)N[C@@H](CCCCN)C(=O)N[C@@H](Cc2ccc(O)cc2)C(=O)N1)C(=O)O (H-[Tic][Pen]FWKYCV-OH; disulfide 2-7) , test system Urotensin-2 receptor (Homo sapiens, UniProt Q9UKP6), was 2.63

Readout Ki for CC(C)[C@H](NC(=O)[C@@H]1CSSC(C)(C)[C@H](NC(=O)[C@@H](N)CCCCN)C(=O)N[C@@H](Cc2ccccc2)C(=O)N[C@H](Cc2c[nH]c3ccccc23)C(=O)N[C@@H](CCCN)C(=O)N[C@@H](Cc2ccc(O)cc2)C(=O)N1)C(=O)O , test system Urotensin-2 receptor (Homo sapiens, UniProt Q9UKP6), was 219

----------
# target_under_test: Urotensin-2 receptor (Rattus norvegicus)
# Sequence (whole entry): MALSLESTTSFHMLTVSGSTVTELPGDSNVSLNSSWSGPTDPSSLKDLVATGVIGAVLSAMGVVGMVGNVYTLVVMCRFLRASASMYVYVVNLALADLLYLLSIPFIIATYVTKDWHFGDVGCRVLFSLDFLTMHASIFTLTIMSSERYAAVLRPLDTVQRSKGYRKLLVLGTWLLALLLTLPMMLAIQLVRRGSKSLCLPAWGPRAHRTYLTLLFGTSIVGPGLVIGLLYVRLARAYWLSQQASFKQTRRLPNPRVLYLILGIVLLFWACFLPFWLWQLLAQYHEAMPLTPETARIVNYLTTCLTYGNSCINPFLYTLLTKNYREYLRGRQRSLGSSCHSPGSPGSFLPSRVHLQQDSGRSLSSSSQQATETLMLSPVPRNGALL
# assay_explanation: Antagonist activity at UT2 receptor in Albino rat aorta assessed as inhibition of […] aortic contraction
# Assay type: functional, tissue-based
Positions of bridges follow the written chain, without caps; N, C: chain ends. Non-standard residues stand in square brackets, D forms with d. Residues, ends and D or L forms follow the SMILES beside them. dPen = CC(C)(S)[C@@H](N)C(=O)O; Orn = NCCC[C@H](N)C(=O)O
attribute_measured: pKb
Lab note: record the figure alone, no unit after it.

Lab book: pKb of CC(C)[C@H](NC(=O)[C@@H]1CSSC(C)(C)[C@@H](NC(=O)[C@@H](N)Cc2cccc3ccccc23)C(=O)N[C@@H](Cc2ccccc2)C(=O)N[C@H](Cc2c[nH]c3ccccc23)C(=O)N[C@@H](CCCN)C(=O)N[C@@H](Cc2ccc(O)cc2)C(=O)N1)C(=O)O noted as 8.5

Lab book: pKb of CC(C)[C@H](NC(=O)[C@@H]1CSSC(C)(C)[C@@H](NC(=O)[C@H](C)N)C(=O)N[C@@H](Cc2ccccc2)C(=O)N[C@H](Cc2c[nH]c3ccccc23)C(=O)N[C@@H](CCCN)C(=O)N[C@@H](Cc2ccc(O)cc2)C(=O)N1)C(=O)O noted as 7.84

Lab book: pKb of CC(C)[C@H](NC(=O)[C@@H]1CSSC(C)(C)[C@@H](NC(=O)[C@@H](N)CCCCN)C(=O)N[C@@H](Cc2ccccc2)C(=O)N[C@H](Cc2c[nH]c3ccccc23)C(=O)N[C@@H](CCCN)C(=O)N[C@@H](Cc2ccc(O)cc2)C(=O)N1)C(=O)O noted as 7.49

Lab book: pKb of CC(C)[C@H](NC(=O)[C@@H]1CSSC(C)(C)[C@@H](NC(=O)[C@@H]2Cc3ccccc3CN2)C(=O)N[C@@H](Cc2ccccc2)C(=O)N[C@H](Cc2c[nH]c3ccccc23)C(=O)N[C@@H](CCCN)C(=O)N[C@@H](Cc2ccc(O)cc2)C(=O)N1)C(=O)O noted as 8.94

Lab book: pKb of CC(C)[C@H](NC(=O)[C@@H]1CSSC(C)(C)[C@@H](NC(=O)[C@@H](N)Cc2ccc(Cl)cc2)C(=O)N[C@@H](Cc2ccccc2)C(=O)N[C@H](Cc2c[nH]c3ccccc23)C(=O)N[C@@H](CCCN)C(=O)N[C@@H](Cc2ccc(O)cc2)C(=O)N1)C(=O)O noted as 7.85

Lab book: pKb of CC(C)[C@H](NC(=O)[C@@H]1CSSC(C)(C)[C@@H](NC(=O)[C@@H](N)Cc2ccc([N+](=O)[O-])cc2)C(=O)N[C@@H](Cc2ccccc2)C(=O)N[C@H](Cc2c[nH]c3ccccc23)C(=O)N[C@@H](CCCN)C(=O)N[C@@H](Cc2ccc(O)cc2)C(=O)N1)C(=O)O noted as 7.9

Lab book: pKb of CC(C)[C@H](NC(=O)[C@@H]1CSSC(C)(C)[C@@H](NC(=O)[C@@H](N)Cc2ccccc2)C(=O)N[C@@H](Cc2ccccc2)C(=O)N[C@H](Cc2c[nH]c3ccccc23)C(=O)N[C@@H](CCCN)C(=O)N[C@@H](Cc2ccc(O)cc2)C(=O)N1)C(=O)O noted as 8.68

Lab book: pKb of CC(C)[C@H](NC(=O)[C@@H]1CSSC(C)(C)[C@@H](NC(=O)[C@@H](N)Cc2ccc3ccccc3c2)C(=O)N[C@@H](Cc2ccccc2)C(=O)N[C@H](Cc2c[nH]c3ccccc23)C(=O)N[C@@H](CCCN)C(=O)N[C@@H](Cc2ccc(O)cc2)C(=O)N1)C(=O)O noted as 7.89

Lab book: pKb of CC(C)[C@H](NC(=O)[C@@H]1CSSC(C)(C)[C@@H](NC(=O)[C@@H](N)CC(=O)O)C(=O)N[C@@H](Cc2ccccc2)C(=O)N[C@H](Cc2c[nH]c3ccccc23)C(=O)N[C@@H](CCCN)C(=O)N[C@@H](Cc2ccc(O)cc2)C(=O)N1)C(=O)O (H-D[dPen]F[dW][Orn]YCV-OH; disulfide 2-7) noted as 8.3
